Cited source: paper PMC10892041

Biological target: LAR (Homo sapiens, UniProt P10586)
Sequence (P10586 1352-1607 limits assumed): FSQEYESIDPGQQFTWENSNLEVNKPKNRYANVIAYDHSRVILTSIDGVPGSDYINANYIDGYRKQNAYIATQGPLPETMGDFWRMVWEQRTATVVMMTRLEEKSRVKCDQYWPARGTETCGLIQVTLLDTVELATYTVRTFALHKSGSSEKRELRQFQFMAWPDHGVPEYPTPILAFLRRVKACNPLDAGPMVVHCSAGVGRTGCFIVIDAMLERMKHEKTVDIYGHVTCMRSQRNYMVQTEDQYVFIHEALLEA
Experiment: Inhibition of human recombinant tyrosine phosphatase LAR (DiFMUP fluorescence)
Protocol: To determine the ability of the tested compounds for inhibition tyrosine phosphatases, human recombinant proteins were used (Sigma-Aldrich). The reactions were performed in black opaque 384-well microplates (PerkinElmer, Waltham, MA, USA). […] Samples were incubated for 20 miN at 23 °C, and then the measurements of fluorescence intensity (excitation 355 and emission […]) were performed on a multifunctional plate reader POLARstar Omega (BMG Labtech, Ortenberg, Germany). […]
List of pIC50 values.
Remember the convention: pIC50 equals -log10 of concentration in molar.

Some solved entries appear below for comparison.
* CC(CC(=S)Nc1ccccc1)=NC(Cc1ccccc1)C(=O)[O][V](=[O])([Cl])[Cl] (stereo not drawn) [VC059, [VOCl2(L2)]·0.5Et2O·1.5HCl] | 7.12
* CC(CC(=S)Nc1ccccc1)=NC(Cc1c[nH]c2ccccc12)C(=O)[O][V](=[O])([Cl])[Cl] (stereo not drawn) [VC054, [VOCl2(L1)]·1.5Et2O ·6.5HCl] | 6.95

Q: For the compound shown here, Cc1occc(=O)c1[O-].Cc1occc(=O)c1[O-].[O]=[V+2] [BMOV, bis(maltolato)oxidovanadium(IV), reference compound] , give the reported pIC50.
Ans: 6.85
